ASSAYED SYSTEM: human melanocortin-4 receptor (human, UniProt P32245 1-332)
Sequence (P32245 whole entry): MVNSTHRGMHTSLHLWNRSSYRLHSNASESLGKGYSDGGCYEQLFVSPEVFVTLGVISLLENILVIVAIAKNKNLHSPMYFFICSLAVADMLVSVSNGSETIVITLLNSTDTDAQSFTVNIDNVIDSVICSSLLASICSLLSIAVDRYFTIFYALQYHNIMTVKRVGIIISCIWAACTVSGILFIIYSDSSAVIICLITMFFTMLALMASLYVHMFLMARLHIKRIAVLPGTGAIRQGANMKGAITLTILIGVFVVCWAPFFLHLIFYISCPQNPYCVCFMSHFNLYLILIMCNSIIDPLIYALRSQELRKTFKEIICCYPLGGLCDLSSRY
ASSAY NOTES: cell-based or functional assay
Positions of bridges follow the written chain, without caps; N, C: chain ends. Non-standard residues stand in square brackets, D forms with d. dPhe(2-CF3) = N[C@H](Cc1ccccc1C(F)(F)F)C(=O)O; dPhe(3,4-F2) = N[C@H](Cc1ccc(F)c(F)c1)C(=O)O; dPhe(4-CN) = N#Cc1ccc(C[C@@H](N)C(=O)O)cc1; dPhe(2-Me) = Cc1ccccc1C[C@@H](N)C(=O)O; dPhe(4-F) = N[C@H](Cc1ccc(F)cc1)C(=O)O; Orn = NCCC[C@H](N)C(=O)O
Measured EC50, cAMP, 10 ng/mL Doxycycline, listed per entry for reference.
VALUE TYPE: EC50, cAMP, 10 ng/mL Doxycycline (nM)

binder="XDQXRWK (N-terminal Ac; D-Arg 1; D-Phe(2-Cl) 4; lactam Asp 2-Lys 7; C-terminal NH2, also called No. 79) [Ac-D-Arg-cyclo(Asp-Gln-D-Phe(2-Cl)-Arg-Trp-Lys)-NH2]" numeric_result=0.2
binder="Ac-REV[dPhe(4-CN)]RW[Orn]-NH2 (lactam 2-7, also called No. 42) [Ac-Arg-cyclo(Glu-Val-D-Phe(4-CN)-Arg-Trp-Orn)-NH2]" numeric_result=0.5
binder="Ac-REQ[dPhe(2-CF3)]RW[Orn]-NH2 (lactam 2-7, also called No. 114) [Ac-Arg-cyclo(Glu-Gln-D-Phe(2-CF3)-Arg-Trp-Orn)-NH2]" numeric_result=0.185
binder="Ac-R[Orn]N[dPhe(2-Me)]RWE-NH2 (lactam 2-7, also called No. 74) [Ac-Arg-cyclo(Orn-Asn-D-Phe(2-Me)-Arg-Trp-Glu)-NH2]" numeric_result=0.11
binder="Ac-R[Orn]N[dPhe(3,4-F2)]RWE-NH2 (lactam 2-7, also called No. 75) [Ac-Arg-cyclo(Orn-Asn-D-Phe(3,4-diF)-Arg-Trp-Glu)-NH2]" numeric_result=0.125
binder="Ac-REP[dPhe(4-F)]RW[Orn]-OH (lactam 2-7; SMILES CC(=O)N[C@@H](CCCNC(=N)N)C(=O)N[C@H]1CCC(=O)NCCC[C@@H](C(=O)O)NC(=O)[C@H](Cc2c[nH]c3ccccc23)NC(=O)[C@H](CCCNC(=N)N)NC(=O)[C@@H](Cc2ccc(F)cc2)NC(=O)[C@@H]2CCCN2C1=O) [Ac-Arg-cyclo(Glu-Pro-D-Phe(4-F)-Arg-Trp-Orn)-OH]" numeric_result=0.725
binder="Ac-R[Orn]N[dPhe(4-F)]RWE-NH2 (lactam 2-7, also called No. 70) [Ac-Arg-cyclo(Orn-Asn-D-Phe(4-F)-Arg-Trp-Glu)-NH2]" numeric_result=0.1
binder="XDQXRWK (N-terminal Ac; D-Arg 1; D-Phe(4-F) 4; lactam Asp 2-Lys 7; C-terminal NH2, also called No. 83) [Ac-D-Arg-cyclo(Asp-Gln-D-Phe(4-F)-Arg-Trp-Lys)-NH2]" numeric_result=0.075
binder="Ac-REQ[dPhe(2-Me)]RW[Orn]-NH2 (lactam 2-7, also called No. 110) [Ac-Arg-cyclo(Glu-Gln-D-Phe(2-Me)-Arg-Trp-Orn)-NH2]" numeric_result=0.06
binder="Ac-REP[dPhe(4-CN)]RW[Orn]-NH2 (lactam 2-7; SMILES CC(=O)N[C@@H](CCCNC(=N)N)C(=O)N[C@H]1CCC(=O)NCCC[C@@H](C(N)=O)NC(=O)[C@H](Cc2c[nH]c3ccccc23)NC(=O)[C@H](CCCNC(=N)N)NC(=O)[C@@H](Cc2ccc(C#N)cc2)NC(=O)[C@@H]2CCCN2C1=O, also called No. 39) [Ac-Arg-cyclo(Glu-Pro-D-Phe(4-CN)-Arg-Trp-Orn)-NH2]" numeric_result=1
